The origin of these recorded values is patent US8778889B2.

TEST_SUMMARY: physchem
Type: physicochemical
CONDITION_SUMMARY: buffer, pH 7.4
Ends that are not written are not given here.

SUBSTANCE | UNIT_TAG | half-life at 200 μg/ml
KKVVFKVKFK-NH2 [KSL] | days | 13.8

----------
TEST_SUMMARY: physchem
Format: physicochemical
CONDITION_SUMMARY: buffer, pH 4
Ends that are not written are not given here.

SUBSTANCE | half-life at 200 μg/ml (days)
KKVVFKVKFK-NH2 [KSL] | 165

----------
TEST_SUMMARY: physchem
Assay type: physicochemical
CONDITION_SUMMARY: buffer, pH 9
Ends that are not written are not given here.

SUBSTANCE | half-life at 200 μg/ml, h
KKVVFKVKFK-NH2 [KSL] | 113
